Measured MIC by item
System: Mycobacterium intracellulare
EXPERIMENT_SUMMARY: Antimycobacterial activity against Mycobacterium intracellulare 1956 by CLSI method
Assay type: functional
Use µg/mL as the unit, but write only the number.

Some molecules with known MIC results, for comparison:
- MOLECULE: "CC12CCCC(C(=O)Nc3nc4c(F)c(F)c(F)cc4s3)(CCC1)C2"
  MIC / µg/mL: 8
- MOLECULE: "COc1ccc2nc(NC(=O)C3CC(C)CC(C)(C)C3)sc2c1 (stereo unspecified)"
  MIC / µg/mL: 8
- MOLECULE: "CC1(C(=O)Nc2nc3ccc(OC(F)(F)F)cc3s2)CCCCCC1"
  MIC / µg/mL: 4
- MOLECULE: "CC1CC(C(=O)Nc2nc3ccc(Cl)cc3s2)CC(C)(C)C1 (stereo unspecified)"
  MIC / µg/mL: 4

Memo: CC1CC(C(=O)Nc2nc3c(F)cc(F)cc3s2)CC(C)(C)C1 (stereo unspecified) , reported MIC: 4

Memo: "CC12CC3CC(C)(C1)CC(C(=O)Nc1nc4ccccc4s1)(C3)C2" , reported MIC: 2

Memo: CC1CC(C(=O)Nc2nc3cc(F)cc(F)c3s2)CC(C)(C)C1 (stereo unspecified) , reported MIC: 8

Memo: "CC12CCCC(C(=O)Nc3nc4ccc(Br)cc4s3)(CCC1)C2" , reported MIC: 4
